Target: 5-hydroxytryptamine receptor 7 (Homo sapiens)
Sequence (P34969 whole entry): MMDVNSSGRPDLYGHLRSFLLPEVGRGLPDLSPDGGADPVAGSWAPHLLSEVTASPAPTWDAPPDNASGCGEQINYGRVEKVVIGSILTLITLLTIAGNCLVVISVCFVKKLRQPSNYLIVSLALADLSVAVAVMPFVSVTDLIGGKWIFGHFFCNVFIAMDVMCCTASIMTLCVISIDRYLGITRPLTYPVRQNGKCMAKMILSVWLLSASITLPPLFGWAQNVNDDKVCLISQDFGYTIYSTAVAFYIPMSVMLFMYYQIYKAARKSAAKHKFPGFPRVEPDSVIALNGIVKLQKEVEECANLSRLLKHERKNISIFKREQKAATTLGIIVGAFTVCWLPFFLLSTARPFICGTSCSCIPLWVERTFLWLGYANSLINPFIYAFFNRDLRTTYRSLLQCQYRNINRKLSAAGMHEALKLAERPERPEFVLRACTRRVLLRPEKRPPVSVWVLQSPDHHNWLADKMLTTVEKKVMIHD
Assay: Displacement of [3H]-5-CT from human 5-HT7b receptor expressed in HEK293 cell membranes after 1 hr by microbeta counting analysis
Reported Ki is given for each of the following molecules.
Form entry: value (nM) — number only.

{"input smiles": "COc1ccc(-c2cc(F)ccc2N2CCN(CCCCCC(=O)NCc3ccc(C#N)cc3)CC2)cc1", "u": "nM", "reported value": 25.5}

Prompt: Report measured Ki; entry is COCOc1ccc(CNC(=O)CCCCCN2CCN(c3ccccc3-c3ccccc3)CC2)cc1
Completion: 4.5

Prompt: Item N#Cc1ccc(CNC(=O)CCOCCN2CCN(c3cccnc3-c3ccc(F)cc3)CC2)cc1 : provide Ki
Completion: 108

Prompt: Report Ki for COc1ccc(-c2ccccc2N2CCN(CCCCCC(=O)N[C@H](C)c3ccc(C#N)cc3)CC2)cc1
Completion: 12

Prompt: Provide measured Ki value, entry: O=C(CCCCCN1CCN(c2ccccc2-c2ccccc2)CC1)NCc1ccc(OCCO)cc1
Completion: 259

Prompt: Specify measured Ki for COc1ccc(-c2ccccc2N2CCN(CCCCCC(=O)N[C@@H](C)c3ccccc3)CC2)cc1 .
Completion: 15.5

Prompt: Answer with the recorded Ki of N#Cc1ccc(CNC(=O)CCCCCN2CCN(c3ccc(F)cc3-c3ccc(C#N)cc3)CC2)cc1 only.
Completion: 27

Prompt: Check the records and state Ki for O=C(CCOCCN1CCN(c2ncccc2-c2ccc(F)cc2)CC1)NCc1ccc(C(F)(F)F)cc1
Completion: 32

----------
Assay: Retention factor, logKw of compound in MeOH/0.01 M phosphate buffer at pH 7.4 by RP-HPLC method
Type: physicochemical
The class of a record is decided solely by its measured logKw; consult group 1: < 0.4; group 2: ≥ 0.4 and < 0.6; group 3: ≥ 0.6

{"input smiles": "N#Cc1ccc(CNC(=O)CCOCCN2CCN(c3cccnc3-c3ccc(F)cc3)CC2)cc1", "assigned label": "group 1"}
{"input smiles": "COc1ccc(-c2ccccc2N2CCN(CCOCCC(=O)NCc3ccccn3)CC2)cc1", "assigned label": "group 1"}
{"input smiles": "COc1ccc(-c2ccccc2N2CCN(CCCCCC(=O)NCc3ccc(OCCCN4CCOCC4)cc3)CC2)cc1", "assigned label": "group 3"}
{"input smiles": "O=C(CCOCCN1CCN(c2ncccc2-c2ccc(F)cc2)CC1)NCc1ccc(C(F)(F)F)cc1", "assigned label": "group 2"}
{"input smiles": "O=C(CCCCCN1CCN(c2ccccc2-c2ccccc2)CC1)NCc1ccccc1", "assigned label": "group 3"}

Prompt: Lab log: N#Cc1ccc(CNC(=O)CCOCCN2CCN(c3cccnc3-c3ccccc3)CC2)cc1 — assign logKw category
Completion: group 1

Prompt: Kindly state the category for this molecule: CN(C)Cc1ccc(CNC(=O)CCCCCN2CCN(c3ccccc3-c3ccccc3)CC2)cc1
Completion: group 3

Prompt: Input O=C(CCOCCN1CCN(c2ccccc2-c2ccccc2)CC1)NCc1ccc(C(F)(F)F)cc1 ; output its category
Completion: group 3

Prompt: Into which category would you place COc1ccc(-c2cc(F)ccc2N2CCN(CCCCCC(=O)NCc3ccc(C#N)cc3)CC2)cc1 ?
Completion: group 2

Prompt: State the band of COCOc1ccc(CNC(=O)CCCCCN2CCN(c3ccccc3-c3ccc(OC)cc3)CC2)cc1
Completion: group 1

Prompt: Hey, which category is COc1ccc(-c2ccccc2N2CCN(CCOCCC(=O)NCc3ccncc3)CC2)cc1 in, do you know?
Completion: group 1
